tested system: Serine/threonine-protein kinase MRCK alpha (Homo sapiens) (UniProt Q5VT25);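 note: each value is an averaged percent inhibition of MRCK alpha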
Sequence (Q5VT25 whole entry): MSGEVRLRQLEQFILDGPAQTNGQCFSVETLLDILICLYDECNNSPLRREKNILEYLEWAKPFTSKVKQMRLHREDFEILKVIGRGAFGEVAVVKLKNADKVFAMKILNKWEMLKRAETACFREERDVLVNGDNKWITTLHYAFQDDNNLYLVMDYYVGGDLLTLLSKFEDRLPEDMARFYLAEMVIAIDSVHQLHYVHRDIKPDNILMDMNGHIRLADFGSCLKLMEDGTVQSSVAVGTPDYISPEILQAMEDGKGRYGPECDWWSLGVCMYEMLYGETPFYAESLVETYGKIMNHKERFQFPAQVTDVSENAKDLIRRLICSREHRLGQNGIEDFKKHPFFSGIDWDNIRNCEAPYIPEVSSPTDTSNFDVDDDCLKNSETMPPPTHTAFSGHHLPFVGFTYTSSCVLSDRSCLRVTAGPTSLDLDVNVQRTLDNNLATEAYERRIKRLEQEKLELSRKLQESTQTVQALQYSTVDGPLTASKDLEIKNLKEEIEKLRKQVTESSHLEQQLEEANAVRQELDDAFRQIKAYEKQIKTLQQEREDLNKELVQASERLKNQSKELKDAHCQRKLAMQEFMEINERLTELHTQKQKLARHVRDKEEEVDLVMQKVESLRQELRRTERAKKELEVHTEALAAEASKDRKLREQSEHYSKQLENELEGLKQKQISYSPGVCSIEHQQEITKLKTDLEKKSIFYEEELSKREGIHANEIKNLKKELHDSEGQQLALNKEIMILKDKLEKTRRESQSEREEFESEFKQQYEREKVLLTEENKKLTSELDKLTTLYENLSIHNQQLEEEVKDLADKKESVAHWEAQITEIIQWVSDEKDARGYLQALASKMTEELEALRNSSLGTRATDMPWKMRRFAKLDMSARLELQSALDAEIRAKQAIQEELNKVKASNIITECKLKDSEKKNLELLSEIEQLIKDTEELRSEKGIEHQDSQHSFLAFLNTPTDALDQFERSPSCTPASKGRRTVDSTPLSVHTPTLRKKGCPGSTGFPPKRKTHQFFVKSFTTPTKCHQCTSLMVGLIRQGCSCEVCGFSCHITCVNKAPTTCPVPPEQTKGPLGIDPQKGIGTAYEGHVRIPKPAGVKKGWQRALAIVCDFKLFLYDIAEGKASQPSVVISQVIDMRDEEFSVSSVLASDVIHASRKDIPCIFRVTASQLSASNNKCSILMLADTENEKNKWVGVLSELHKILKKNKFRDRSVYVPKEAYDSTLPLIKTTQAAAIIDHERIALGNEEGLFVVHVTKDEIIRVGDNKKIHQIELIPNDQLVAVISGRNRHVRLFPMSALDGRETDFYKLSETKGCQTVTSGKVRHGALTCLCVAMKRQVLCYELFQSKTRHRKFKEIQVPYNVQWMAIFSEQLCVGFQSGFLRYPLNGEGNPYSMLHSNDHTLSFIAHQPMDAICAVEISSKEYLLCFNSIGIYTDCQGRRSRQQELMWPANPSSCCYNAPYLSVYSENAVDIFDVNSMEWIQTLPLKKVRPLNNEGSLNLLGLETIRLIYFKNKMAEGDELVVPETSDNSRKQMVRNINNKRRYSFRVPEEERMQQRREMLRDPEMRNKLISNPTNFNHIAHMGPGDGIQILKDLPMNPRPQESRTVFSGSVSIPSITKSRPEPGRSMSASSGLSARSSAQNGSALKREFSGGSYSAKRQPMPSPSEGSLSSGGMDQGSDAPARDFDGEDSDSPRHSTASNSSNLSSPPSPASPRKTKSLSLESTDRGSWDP
condition summary: at 1 µM
measured parameter: inhibition (%)
Please respond with the number in % and leave the unit unwritten.

Query :: Data request, read-out inhibition, for Fc1ccc(-c2ncn(CCCN3CCOCC3)c2-c2ccncc2)cc1
Result :: 1.33

Query :: Give its inhibition value. Item: COc1cc(C)c(N(C)C(=O)CN(C)C)cc1Nc1nc(Nc2cccc(F)c2C(N)=O)c2cc[nH]c2n1
Result :: 0.78

Query :: Bench note: what inhibition did CN(C)c1ccc2c(c1)/C(=C/Nc1ccc(S(N)(=O)=O)cc1)C(=O)N2 show?
Result :: 4.01

Query :: What value of inhibition has been reported for the following compound? COc1cc2ncn(-c3cc(OCc4ccccc4C(F)(F)F)c(C(C)=O)s3)c2cc1OC
Result :: 1.84

Query :: Return reported inhibition; argument: C[C@@H](Oc1cc(-n2cnc3ccc(OC4CCN(C)CC4)cc32)sc1C(N)=O)c1ccccc1Cl
Result :: 5.65

Query :: Which inhibition is reported for this compound? CCC(=O)Nc1ccc(C)c(-c2ccc(C(=O)NCC3CC3)cc2)c1
Result :: 1.8
